target: Fyn (UniProt P06241); assay: phosphorylation enrichment, bacterial display (enrichment ratio); higher = better substrate or ligand; peptides without Tyr show the background;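 also: 11-residue human phosphosite peptides and single-mutation variants displayed on the E. coli surface, counted by deep sequencing, each peptide's frequency after selection divided by its frequency in the unselected input library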;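 also: frequency after pTyr selection over input frequency; kinase dosed for 20-30% of maximal phosphorylation in three min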
Sequence (P06241 whole entry, looked up): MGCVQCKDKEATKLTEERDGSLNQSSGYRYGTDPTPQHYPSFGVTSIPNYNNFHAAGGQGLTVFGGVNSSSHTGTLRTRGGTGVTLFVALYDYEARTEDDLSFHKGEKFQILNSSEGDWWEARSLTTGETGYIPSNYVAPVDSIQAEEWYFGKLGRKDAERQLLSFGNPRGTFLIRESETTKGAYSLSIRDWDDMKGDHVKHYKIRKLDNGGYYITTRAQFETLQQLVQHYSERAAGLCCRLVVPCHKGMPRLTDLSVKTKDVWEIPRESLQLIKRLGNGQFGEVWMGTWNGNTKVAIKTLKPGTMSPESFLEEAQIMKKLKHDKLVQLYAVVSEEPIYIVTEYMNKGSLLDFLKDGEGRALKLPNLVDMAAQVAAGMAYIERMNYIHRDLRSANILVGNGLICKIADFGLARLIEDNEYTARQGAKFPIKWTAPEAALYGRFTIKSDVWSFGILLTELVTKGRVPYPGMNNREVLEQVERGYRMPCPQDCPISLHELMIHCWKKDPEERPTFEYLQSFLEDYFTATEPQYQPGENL
property-name: phosphorylation enrichment

polymer-sequence	phosphorylation enrichment
KRIETYFSKNY [PLP1_Y50_L46R]	0.374
NEKNIYRVPLM [BMPR2_Y247]	1.96
TNDMRYPMKSE [TGDS_Y302]	0.445
TKVVHYWKWIK [KLK2_Y249_R250W]	0.346

// switching to the query sequence
According to the records, this sequence IMFTSYFLTIL [TAS2R16_Y239_V235M] displays phosphorylation enrichment of 0.622

###

Readings of phosphorylation enrichment for the listed sequences
test system: Fer (mouse); test: phosphorylation enrichment, bacterial display (enrichment ratio); higher = better substrate or ligand; peptides without Tyr show the background
No unit in the answer, only the number.

According to the records, this sequence HSGVSYFINLC [IGF2R_Y2024_N2020S_YF] displays phosphorylation enrichment of 0.652

According to the records, this sequence MANFVYKAGPS [MAML2_Y515_M514V_YF] displays phosphorylation enrichment of 0.39

According to the records, this sequence `GFIISYREEEQ` displays phosphorylation enrichment of 0.644

According to the records, this sequence QDRTYYERVRT [SPEN_Y633_S635R] displays phosphorylation enrichment of 2.62

According to the records, this sequence WAMPAYNRSKL [WWOX_Y293_L291P] displays phosphorylation enrichment of 0.281

According to the records, this sequence EELLHYAIVTP [POC5_Y37] displays phosphorylation enrichment of 6.7

###

biological target: EPHB1 (UniProt P54762); assay: phosphorylation enrichment, bacterial display (enrichment ratio); higher = better substrate or ligand; peptides without Tyr show the background
Sequence (P54762 whole entry, looked up): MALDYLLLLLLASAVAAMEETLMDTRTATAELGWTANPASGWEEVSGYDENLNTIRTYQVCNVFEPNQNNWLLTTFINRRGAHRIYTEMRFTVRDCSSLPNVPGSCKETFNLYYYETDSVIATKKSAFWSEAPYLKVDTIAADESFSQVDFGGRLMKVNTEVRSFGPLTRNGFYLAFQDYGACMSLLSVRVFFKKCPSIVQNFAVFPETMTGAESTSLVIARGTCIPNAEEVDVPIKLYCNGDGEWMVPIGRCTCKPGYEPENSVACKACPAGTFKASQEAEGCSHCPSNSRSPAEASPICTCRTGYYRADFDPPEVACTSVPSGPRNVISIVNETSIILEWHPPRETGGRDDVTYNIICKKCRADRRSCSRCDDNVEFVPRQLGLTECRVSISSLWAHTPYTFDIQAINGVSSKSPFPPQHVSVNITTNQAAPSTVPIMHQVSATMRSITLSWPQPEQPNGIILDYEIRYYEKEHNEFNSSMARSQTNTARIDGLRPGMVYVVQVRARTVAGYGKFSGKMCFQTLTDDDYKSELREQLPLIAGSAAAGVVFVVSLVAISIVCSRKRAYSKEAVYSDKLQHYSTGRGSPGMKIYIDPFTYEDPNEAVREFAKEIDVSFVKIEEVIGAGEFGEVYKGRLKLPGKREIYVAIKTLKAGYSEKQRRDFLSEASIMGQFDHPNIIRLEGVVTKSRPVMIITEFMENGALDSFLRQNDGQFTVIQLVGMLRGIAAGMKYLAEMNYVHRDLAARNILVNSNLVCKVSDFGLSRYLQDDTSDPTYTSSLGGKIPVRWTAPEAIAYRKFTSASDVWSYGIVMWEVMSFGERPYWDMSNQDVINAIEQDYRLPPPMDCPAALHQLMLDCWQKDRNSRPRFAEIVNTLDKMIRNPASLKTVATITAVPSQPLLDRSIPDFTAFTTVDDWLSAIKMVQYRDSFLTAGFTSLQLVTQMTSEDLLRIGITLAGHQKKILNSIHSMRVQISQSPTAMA
Everything with phosphorylation enrichment lower than 0.5 is -1; everything else, including exactly 0.5, is 1.

Consider the following illustrative entries.
polymer-sequence	cat
RICRRYCQVLN [IQCF1_Y144_R141C]	1
ALRASYTPSPV [ESS2_Y418_A423V]	-1
RCKSHYAAFSV [C1QTNF1_Y145]	1

Confirm if phosphorylation enrichment reported for the sequence SIKDKYVTALY [KCNH2_Y611] is 0.5 or above.
-1

Confirm if phosphorylation enrichment reported for the sequence HNVPICEGYAL [ACTC1_Y168_Y168C] is 0.5 or above.
1

Confirm if phosphorylation enrichment reported for the sequence IFLENYNAGTF [CFI_Y421_H418L_YF] is 0.5 or above.
-1

###

system: AncSZ; experiment: phosphorylation enrichment, bacterial display (enrichment ratio); higher = better substrate or ligand; peptides without Tyr show the background
Readings of phosphorylation enrichment for the listed sequences
No unit in the answer, only the number.

polymer-sequence	phosphorylation enrichment
TLPAFYMENFS [GLB1_Y552_G554E]	1.19
VVKLAYNENDN [CAMKK2_Y183]	0.856
MSSAGYRAAEG [COL6A3_Y543_T538M]	0.468
RHFTGCRIELQ [INSR_Y818_Y818C]	0.779
EHLNRYINDTF [TTLL10_Y446_S448N]	0.853
AALSAYAPQRP [PTPRN2_Y249_A251P]	0.853
YECKWYIPLTD [BCR_Y756_D752E]	1.48
GLIPAYHRFIM [NMNAT1_Y64_V67F]	0.734

According to the records, this sequence RNLDTYQKRLR [PLA2G2D_Y126] displays phosphorylation enrichment of 0.617

According to the records, this sequence PLSGEYFTLQI [TP53_Y327_D324S] displays phosphorylation enrichment of 3.93

According to the records, this sequence PTQLPYDHKWE [KIT_Y578] displays phosphorylation enrichment of 0.859

According to the records, this sequence IFGASYVPFAA [RBM47_Y541_YF] displays phosphorylation enrichment of 0.775

According to the records, this sequence LGRTVYADCLA [ABCA4_Y2063_L2060R] displays phosphorylation enrichment of 0.983

According to the records, this sequence GRRNTCYASIA [ACADM_Y352_Y352C] displays phosphorylation enrichment of 0.557

According to the records, this sequence SYCYRYRCAAQ [SUMF1_Y344_R349Q] displays phosphorylation enrichment of 0.768

###

molecular target: MERTK (UniProt Q12866); experiment: phosphorylation enrichment, bacterial display (enrichment ratio); higher = better substrate or ligand; peptides without Tyr show the background
Sequence (Q12866 whole entry, looked up): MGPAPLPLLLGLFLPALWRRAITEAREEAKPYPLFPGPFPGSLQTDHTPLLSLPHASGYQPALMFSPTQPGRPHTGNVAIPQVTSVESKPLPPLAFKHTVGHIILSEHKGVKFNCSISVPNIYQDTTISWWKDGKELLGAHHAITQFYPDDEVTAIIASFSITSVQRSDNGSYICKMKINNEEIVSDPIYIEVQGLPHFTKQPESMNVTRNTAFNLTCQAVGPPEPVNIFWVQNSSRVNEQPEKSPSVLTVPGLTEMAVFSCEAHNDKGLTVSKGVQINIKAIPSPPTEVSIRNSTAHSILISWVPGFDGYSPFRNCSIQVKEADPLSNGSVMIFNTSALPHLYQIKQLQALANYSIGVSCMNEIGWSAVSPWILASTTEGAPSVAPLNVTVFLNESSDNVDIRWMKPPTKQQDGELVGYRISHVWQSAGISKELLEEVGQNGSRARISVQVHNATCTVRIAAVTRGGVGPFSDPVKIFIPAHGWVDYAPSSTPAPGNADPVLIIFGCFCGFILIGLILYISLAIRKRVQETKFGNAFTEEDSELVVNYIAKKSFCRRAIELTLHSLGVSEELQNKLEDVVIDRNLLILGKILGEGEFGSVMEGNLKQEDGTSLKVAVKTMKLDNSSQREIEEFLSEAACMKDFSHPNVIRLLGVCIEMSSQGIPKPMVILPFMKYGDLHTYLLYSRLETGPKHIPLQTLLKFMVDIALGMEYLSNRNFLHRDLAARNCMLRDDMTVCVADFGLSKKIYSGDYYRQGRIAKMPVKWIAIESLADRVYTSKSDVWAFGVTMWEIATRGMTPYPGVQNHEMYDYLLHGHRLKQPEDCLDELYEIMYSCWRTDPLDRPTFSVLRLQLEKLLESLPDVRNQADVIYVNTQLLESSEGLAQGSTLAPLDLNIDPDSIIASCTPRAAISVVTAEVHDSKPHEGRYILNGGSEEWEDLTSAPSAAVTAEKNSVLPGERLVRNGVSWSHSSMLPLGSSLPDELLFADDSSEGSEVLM
Everything with phosphorylation enrichment lower than 0.5 is 0; everything else, including exactly 0.5, is 1.

polymer-sequence	cat
SSVKPYRVYCD [FGB_Y266]	0

Confirm if phosphorylation enrichment reported for the sequence NFFDLYGGEKF [PTPN11_Y66_D61N_YF] is 0.5 or above.
0

###

Readings of phosphorylation enrichment for the listed sequences
biological target: Jak2 (UniProt O60674); assay: phosphorylation enrichment, bacterial display (enrichment ratio); higher = better substrate or ligand; peptides without Tyr show the background
Sequence (O60674 whole entry, looked up): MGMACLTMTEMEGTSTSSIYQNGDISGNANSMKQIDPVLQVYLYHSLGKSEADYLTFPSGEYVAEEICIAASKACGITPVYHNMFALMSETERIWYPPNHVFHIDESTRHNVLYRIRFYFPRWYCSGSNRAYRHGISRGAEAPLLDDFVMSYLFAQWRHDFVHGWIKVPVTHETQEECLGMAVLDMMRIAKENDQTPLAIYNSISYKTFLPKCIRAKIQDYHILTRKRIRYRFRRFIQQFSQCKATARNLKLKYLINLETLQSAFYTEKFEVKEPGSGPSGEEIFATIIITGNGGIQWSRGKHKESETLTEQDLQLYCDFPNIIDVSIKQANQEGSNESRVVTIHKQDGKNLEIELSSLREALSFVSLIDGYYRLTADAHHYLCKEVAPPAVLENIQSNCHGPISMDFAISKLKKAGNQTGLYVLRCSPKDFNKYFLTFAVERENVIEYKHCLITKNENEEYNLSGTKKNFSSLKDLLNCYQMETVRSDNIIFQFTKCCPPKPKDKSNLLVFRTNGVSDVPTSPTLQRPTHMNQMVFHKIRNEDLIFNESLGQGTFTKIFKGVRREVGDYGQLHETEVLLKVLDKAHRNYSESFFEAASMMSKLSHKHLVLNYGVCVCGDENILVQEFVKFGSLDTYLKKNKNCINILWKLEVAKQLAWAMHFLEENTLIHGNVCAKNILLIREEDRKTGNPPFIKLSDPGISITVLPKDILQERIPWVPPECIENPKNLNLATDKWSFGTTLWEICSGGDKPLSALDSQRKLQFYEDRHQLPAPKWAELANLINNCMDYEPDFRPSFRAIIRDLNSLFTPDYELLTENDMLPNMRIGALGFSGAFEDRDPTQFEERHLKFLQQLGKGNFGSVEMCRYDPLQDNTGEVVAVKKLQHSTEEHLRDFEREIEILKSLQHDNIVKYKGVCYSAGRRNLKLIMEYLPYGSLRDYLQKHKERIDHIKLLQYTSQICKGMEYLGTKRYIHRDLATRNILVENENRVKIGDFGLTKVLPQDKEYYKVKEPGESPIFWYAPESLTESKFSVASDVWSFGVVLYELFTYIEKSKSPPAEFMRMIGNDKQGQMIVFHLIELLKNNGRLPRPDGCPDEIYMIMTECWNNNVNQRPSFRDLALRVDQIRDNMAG
No unit in the answer, only the number.

Observe how each entry below is paired with its result.
polymer-sequence	reported-measurement
SVVVPYDPPEV [TP53_Y220_E221D]	1.01
RSAGKYDVYFI [MECP2_Y120_L124F]	0.925
VVKTVYSLQPP [KNSTRN_Y87]	0.681
SLLPDYEDEEE [ZNF830_Y159]	1.01

According to the records, this sequence DDIPLYLKGGV [COX7A2_Y44_E40D] displays phosphorylation enrichment of 1.02

According to the records, this sequence NRKGKYFNVER [ANAPC4_Y469] displays phosphorylation enrichment of 0.379

According to the records, this sequence FATAGYGSLEA [EPHA10_Y959_A956T] displays phosphorylation enrichment of 0.691

According to the records, this sequence LVTAWYIGFLC [KCNQ2_Y237] displays phosphorylation enrichment of 2.67

According to the records, this sequence PEFINYHQHNS [BTK_Y361_L358F] displays phosphorylation enrichment of 0.933

According to the records, this sequence EPSLDYMVTKI [CPS1_Y768] displays phosphorylation enrichment of 1.05

According to the records, this sequence QRIFQYIRSRF [DYRK1B_Y273_Q275R_YF] displays phosphorylation enrichment of 1.24

According to the records, this sequence INNIDYFKKTT [FGFR2_Y656_YF] displays phosphorylation enrichment of 0.605

According to the records, this sequence KSSDVYVSYDY [SORL1_Y136] displays phosphorylation enrichment of 1.08

According to the records, this sequence KCLAVYQAGAR [APOE_Y180_R176C] displays phosphorylation enrichment of 0.744

According to the records, this sequence EATKGYLDDPT [G6PD_Y322] displays phosphorylation enrichment of 0.949

According to the records, this sequence NSNAAYEQSHF [LRIF1_Y714] displays phosphorylation enrichment of 0.418

According to the records, this sequence AMCVCYDGVEV [ADAMTSL2_Y594_R593C] displays phosphorylation enrichment of 1.03

###

test system: c-Src; experiment: phosphorylation enrichment, bacterial display (enrichment ratio); higher = better substrate or ligand; peptides without Tyr show the background
property-name: phosphorylation enrichment
No unit in the answer, only the number.

polymer-sequence	phosphorylation enrichment
WIPNQYPIISE [NOG_Y222_I220N]	0.636
QPTPGYEVGQR [TSC2_Y1788_E1783Q]	0.329
IVAREYFSKAD [CAMK2B_Y107_E110K_YF]	0.342
TALFIYIRPKA [OR10C1_Y258]	0.304
PLSGEYFTLQI [TP53_Y327_D324S]	3.48

According to the records, this sequence GDSVQYNRTTD [MLPH_Y454_P451S] displays phosphorylation enrichment of 0.422

According to the records, this sequence TLQIMYGCDVG [HLA-A_Y123_I119L] displays phosphorylation enrichment of 0.673

According to the records, this sequence ELCSEYRKSRK [SPINK5_Y440] displays phosphorylation enrichment of 0.375

According to the records, this sequence RIDRKYKKVRF [F8_Y442_G439D] displays phosphorylation enrichment of 1.32

According to the records, this sequence DHLASYLDKVR [KRT10_Y160_R156H] displays phosphorylation enrichment of 0.457

According to the records, this sequence ADEDIYGVLPA [LYNtide_2014] displays phosphorylation enrichment of 2.97

###

tested on: c-Src; assay: phosphorylation enrichment, bacterial display (enrichment ratio); higher = better substrate or ligand; peptides without Tyr show the background
property-name: phosphorylation enrichment

Observe how each entry below is paired with its result.
polymer-sequence	property-name	reported-measurement
MEKEKYVSYIS [JMJD1C_Y596]	phosphorylation enrichment	0.5
LNRAGYCDALE [MTUS1_Y151_C148R]	phosphorylation enrichment	0.591
MHLRQYKLLGG [GNAS_Y391_E392K]	phosphorylation enrichment	0.419

Measured on c-Src, HNVPICEGYAL [ACTC1_Y168_Y168C] has a documented phosphorylation enrichment of 0.668

Measured on c-Src, EKKDLYKAGEQ [CFH_Y1008_V1007L] has a documented phosphorylation enrichment of 0.369

Measured on c-Src, RCKSHYAAFSV [C1QTNF1_Y145] has a documented phosphorylation enrichment of 1.07

Measured on c-Src, PLQSEYSSITT [ITGB4_Y1760] has a documented phosphorylation enrichment of 1.77

Measured on c-Src, MASISYDYCRV [BST2_Y6_T4I] has a documented phosphorylation enrichment of 0.589

Measured on c-Src, TLQRMYGCDVG [HLA-B_Y123_S121R] has a documented phosphorylation enrichment of 0.554

Measured on c-Src, ISDNACQYMLT [MYH7_Y162_Y162C] has a documented phosphorylation enrichment of 0.811

Measured on c-Src, EEQKKYYNATK [SCN5A_Y1494_M1498T] has a documented phosphorylation enrichment of 0.363

Measured on c-Src, SSQHRYSTPHT [RAF1_Y232_A237T] has a documented phosphorylation enrichment of 0.423

Measured on c-Src, MKALGYFAVVK [OPA1_Y498_T503K] has a documented phosphorylation enrichment of 0.397

Measured on c-Src, GVTLLYFGRFN [ADGRD1_Y85_YF] has a documented phosphorylation enrichment of 0.426

Measured on c-Src, TEQDPYNNIDR [MMUT_Y364_V368D] has a documented phosphorylation enrichment of 0.486

Measured on c-Src, FDGKDYIALNE [HLA-A_Y147_YF] has a documented phosphorylation enrichment of 0.386

Measured on c-Src, PMQLPYDSTWE [PDGFRB_Y589] has a documented phosphorylation enrichment of 1.1

Measured on c-Src, QYNPEYVQQAS [LRRC7_Y1058_H1054Y] has a documented phosphorylation enrichment of 0.508

Measured on c-Src, GLIPAYHRFIM [NMNAT1_Y64_V67F] has a documented phosphorylation enrichment of 0.616
